Tested on: SF-539 CNS
Run Description: NCI-60 one-dose screen, 48 h (100 = growth as untreated, 0 = no growth, -100 = all killed)
Condition Details: 10 µM unless noted
This is part of a sample that, as a whole, favours compounds with a hit. Of some 83,000 tested, about 20% had one in any assay.
Lab note: class by growth, see low bin (below -80%), mid bin (-80% to below 90%), high bin (90% or more)

Smiles Record: CCN(CCCOc1ccc2c(Nc3cc(CC(=O)Nc4cccc(F)c4)[nH]n3)ncnc2c1)CCOP(=O)(O)O
Qualitative Label: mid bin
//
Smiles Record: COc1ccc(OC)c(NC2=C(SCCc3ccccc3)C(=O)c3ccccc3C2=O)c1
Qualitative Label: mid bin
//
Smiles Record: O=C1NC(=O)/C(=C/c2ccc3nccc(-c4ccncc4)c3c2)S1
Qualitative Label: mid bin
//
Smiles Record: Cn1c(Nc2ccc(C(F)(F)F)cc2)nc2cc(Oc3ccnc(-c4ncc(C(F)(F)F)[nH]4)c3)ccc21
Qualitative Label: mid bin
//
Smiles Record: C1=C\COCc2cc(ccc2OCCN2CCCC2)Nc2nccc(n2)-c2cccc(c2)COC/1
Qualitative Label: low bin
//
Smiles Record: O=c1nc2c(-c3nc4ccccc4s3)n[nH]n2c2sc3c(c12)CCCC3
Qualitative Label: high bin
